Cited source: ChEMBL document CHEMBL4665678

assaySystem: UniProtKB P42330
Sequence (P42330 whole entry): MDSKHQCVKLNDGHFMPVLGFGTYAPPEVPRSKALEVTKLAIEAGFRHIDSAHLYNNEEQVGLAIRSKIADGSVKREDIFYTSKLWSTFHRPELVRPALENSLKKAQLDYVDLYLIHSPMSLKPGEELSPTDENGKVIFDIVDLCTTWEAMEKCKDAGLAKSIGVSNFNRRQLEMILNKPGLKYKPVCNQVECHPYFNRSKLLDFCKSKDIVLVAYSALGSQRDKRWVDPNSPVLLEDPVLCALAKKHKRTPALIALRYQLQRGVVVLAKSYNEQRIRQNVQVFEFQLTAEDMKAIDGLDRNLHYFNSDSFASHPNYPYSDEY
testName: Inhibition of human AKR1C3 using S-tetralol as substrate in presence of NADP by fluorescence method
List of pIC50 values.
Remember the convention: pIC50 equals -log10 of concentration in molar.

Query: Any idea what pIC50 was measured for O=C(O)c1cccc(Nc2ccc([N+](=O)[O-])c3c([N+](=O)[O-])cccc23)c1 ?
Response: 7.28

Query: pIC50; subject: CC(=O)c1ccc(Nc2cccc(C(=O)O)c2)c2ccccc12
Response: 7.09

Query: Return reported pIC50; argument: O=C(O)c1cccc(Nc2ccc([N+](=O)[O-])c3ccccc23)c1
Response: 7.07
